biological target: cyno LAIR-1-CD3ζ chimeric receptor on NFAT-GFP reporter cells (cynomolgus monkey; human); assay: cell-based or functional assay
Sequence (P20963 other isoform, or with tags, fused parts or gaps mutant limits assumed): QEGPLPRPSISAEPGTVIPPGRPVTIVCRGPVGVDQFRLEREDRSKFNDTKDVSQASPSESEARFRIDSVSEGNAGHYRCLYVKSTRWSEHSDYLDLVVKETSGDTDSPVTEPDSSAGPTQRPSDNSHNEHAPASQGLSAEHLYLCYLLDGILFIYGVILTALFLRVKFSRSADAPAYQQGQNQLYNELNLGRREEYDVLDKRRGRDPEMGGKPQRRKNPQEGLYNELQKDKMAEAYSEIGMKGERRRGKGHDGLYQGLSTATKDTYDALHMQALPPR
PROPERTY_LABEL: IC50 (read off the curve): % GFP+ cyno LAIR-1 reporter cells on coated MARCO-his

The recorded IC50 (read off the curve): % GFP+ cyno LAIR-1 reporter cells on coated MARCO-his for humanized anti-LAIR-1 antibody Hz47H1.v4 (antibody, human IgG1, kappa, N297G, V domains shown, Humanized 47H1 with reengineered VH CDR2 and VL CDR2) VH: EVQLVESGGGLVQPGGSLRLSCAASGFTFNINAMNWVRQAPGKGLEWVARIRTKNYNYATFYADSVKDRFTISRDDSKNSLYLQMNSLKTEDTAVYYCVRDRAGFFAYWGQGTTVTVSS VL: DIQMTQSPSSLSASVGDRVTITCLASQTIGTWLGWYQQKPGKAPKLLIYAATSLAEGVPSRFSGSGSGTDFTLTISSLQPEDFATYYCQQLYSTPLTFGGGTKVEIKR is ~0.06 nM

The recorded IC50 (read off the curve): % GFP+ cyno LAIR-1 reporter cells on coated MARCO-his for anti-LAIR-1 antibody ch62G10 (antibody, V domains shown, The prefix 'ch' is not defined) VH: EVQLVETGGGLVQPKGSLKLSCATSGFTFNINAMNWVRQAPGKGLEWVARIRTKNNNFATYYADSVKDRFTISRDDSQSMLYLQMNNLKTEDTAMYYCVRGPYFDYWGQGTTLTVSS VL: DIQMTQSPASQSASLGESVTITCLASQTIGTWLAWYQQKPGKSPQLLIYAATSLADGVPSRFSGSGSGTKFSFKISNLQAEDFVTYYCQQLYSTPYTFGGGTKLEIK is ~0.2 nM

The recorded IC50 (read off the curve): % GFP+ cyno LAIR-1 reporter cells on coated MARCO-his for anti-LAIR-1 antibody ch47H1 (antibody, V domains shown, The prefix 'ch' is not defined; detected with anti-human Fc secondary antibody) VH: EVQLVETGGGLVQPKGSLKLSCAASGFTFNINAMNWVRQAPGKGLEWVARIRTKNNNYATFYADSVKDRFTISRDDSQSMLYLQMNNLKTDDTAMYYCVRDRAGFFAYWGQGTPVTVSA VL: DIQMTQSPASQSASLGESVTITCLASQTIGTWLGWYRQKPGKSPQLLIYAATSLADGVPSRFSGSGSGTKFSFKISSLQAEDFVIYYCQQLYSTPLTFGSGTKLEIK is ~0.1 nM

The recorded IC50 (read off the curve): % GFP+ cyno LAIR-1 reporter cells on coated MARCO-his for humanized anti-LAIR-1 antibody Hz62G10.v1 (antibody, human IgG1, kappa, N297G, V domains shown, Humanized 62G10) VH: EVQLVESGGGLVKPGGSLRLSCAASGFTFNINAMNWVRQAPGKGLEWVARIRTKNNNFATYYADSVKDRFTISRDDSKNTLYLQMNSLKTEDTAVYYCVRGPYFDYWGQGTLVTVSS VL: DIQMTQSPSSLSASVGDRVTITCLASQTIGTWLAWYQQKPGKAPKLLIYAATSLADGVPSRFSGSGSGTDFTLTISSLQPEDFATYYCQQLYSTPYTFGGGTKVEIKR is ~0.2 nM

meta.source: patent US20220041711A1
